Experiment: Volume of distribution at steady state in Crl:CD(SD) rat at 1 mg/kg, iv by LC-MS/MS analysis
Format: ADME, organism-based
Conditions: in vivo, read-out: Vdss
OBSERVATION TYPE: Vd (L/kg)
Response body: numeric value in L/kg, unit text excluded.

Asked: I am curious: what Vd value has been reported for COc1cc(F)c([C@@H]2CNC(=O)[C@H]2NC(=O)Nc2ccccc2)c(F)c1 [BMS-986235] ?
Given back: 3

---

Assay: Cmax in Crl:CD(SD) rat at 1 mg/kg, po by LC-MS/MS analysis
Type: ADME, organism-based
Set-up: route oral, dose 1 mg/kg
Conditions: in vivo
OBSERVATION TYPE: Cmax (nM)
Response body: numeric value in nM, unit text excluded.

Asked: I am curious: what Cmax value has been reported for COc1cc(F)c([C@@H]2CNC(=O)[C@H]2NC(=O)Nc2ccccc2)c(F)c1 [BMS-986235] ?
Given back: 240

---

Target: Cytochrome P450 3A4 (Homo sapiens, UniProt P08684)
Sequence (P08684 whole entry): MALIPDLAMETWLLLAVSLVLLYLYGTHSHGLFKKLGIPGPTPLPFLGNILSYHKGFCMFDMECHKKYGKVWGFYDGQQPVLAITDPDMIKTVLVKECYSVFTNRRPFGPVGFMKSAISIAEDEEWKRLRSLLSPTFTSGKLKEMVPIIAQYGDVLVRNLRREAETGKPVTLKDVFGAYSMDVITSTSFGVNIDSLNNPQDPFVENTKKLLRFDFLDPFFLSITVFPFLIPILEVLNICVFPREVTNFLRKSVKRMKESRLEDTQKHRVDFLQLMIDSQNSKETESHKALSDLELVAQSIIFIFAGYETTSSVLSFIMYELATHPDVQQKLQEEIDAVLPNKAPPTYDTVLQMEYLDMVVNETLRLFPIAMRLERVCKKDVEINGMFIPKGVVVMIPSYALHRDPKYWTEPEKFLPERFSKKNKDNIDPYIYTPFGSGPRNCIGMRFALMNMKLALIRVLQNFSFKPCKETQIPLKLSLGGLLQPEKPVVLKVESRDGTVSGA
Assay: Inhibition of recombinant human CYP3A4
OBSERVATION TYPE: IC50

Asked: I am curious: what IC50 value has been reported for COc1cc(F)c([C@@H]2CNC(=O)[C@H]2NC(=O)Nc2ccc(F)cc2)c(F)c1 ?
Given back: > 20 µM

Asked: I am curious: what IC50 value has been reported for COc1cc(F)c([C@@H]2CNC(=O)[C@H]2NC(=O)Nc2ccc(F)c(F)c2)c(F)c1 ?
Given back: > 20 µM

Asked: I am curious: what IC50 value has been reported for COc1cc(F)c([C@@H]2CNC(=O)[C@H]2NC(=O)Nc2ccc(C)c(O)c2)c(F)c1 ?
Given back: > 20 µM

Asked: I am curious: what IC50 value has been reported for COc1cc(F)c([C@@H]2CNC(=O)[C@H]2NC(=O)Nc2ccccc2)c(F)c1 ?
Given back: > 20 µM

Asked: I am curious: what IC50 value has been reported for COc1cc(F)c([C@@H]2CNC(=O)[C@H]2NC(=O)Nc2ccc(Cl)s2)c(F)c1 ?
Given back: 5.6 µM

---

Assay: AUC (0 to infinity) in cynomolgus monkey at 3 mg/kg, po by LC-MS/MS analysis
Type: ADME, organism-based, Macaca fascicularis
Design: time infinity, route oral, dose 3 mg/kg
Conditions: in vivo
OBSERVATION TYPE: AUC(0-inf) (µM·h)
Response body: numeric value in µM·h, unit text excluded.

Asked: I am curious: what AUC(0-inf) value has been reported for COc1cc(F)c([C@@H]2CNC(=O)[C@H]2NC(=O)Nc2ccccc2)c(F)c1 ?
Given back: 5.8

---

Assay: AUC (0 to infinity) in Crl:CD(SD) rat at 1 mg/kg, po by LC-MS/MS analysis
Assay type: ADME, organism-based
Parameters: time infinity, route oral, dose 1 mg/kg
Conditions: in vivo
OBSERVATION TYPE: AUC(0-inf) (µM·h)
Response body: numeric value in µM·h, unit text excluded.

Asked: I am curious: what AUC(0-inf) value has been reported for COc1cc(F)c([C@@H]2CNC(=O)[C@H]2NC(=O)Nc2ccccc2)c(F)c1 ?
Given back: 0.64

---

Test: Volume of distribution at steady state in Crl:CD1(ICR) mouse at 0.5 mg/kg, iv by LC-MS/MS analysis
Type: ADME, organism-based
Conditions: in vivo, read-out: Vdss
OBSERVATION TYPE: Vd (L/kg)
Response body: numeric value in L/kg, unit text excluded.

Asked: I am curious: what Vd value has been reported for COc1cc(F)c([C@@H]2CNC(=O)[C@H]2NC(=O)Nc2ccccc2)c(F)c1 ?
Given back: 3.5

---

Assay: Half life in Beagle dog at 1 mg/kg, po by LC-MS/MS analysis
Type: ADME, organism-based, Canis lupus familiaris
Conditions: in vivo
OBSERVATION TYPE: half-life (h)
Response body: numeric value in h, unit text excluded.

Asked: I am curious: what half-life value has been reported for COc1cc(F)c([C@@H]2CNC(=O)[C@H]2NC(=O)Nc2ccccc2)c(F)c1 ?
Given back: 2.5

---

Molecular target: Formyl peptide receptor 2 (Mus musculus, UniProt O88536)
Sequence (O88536 whole entry): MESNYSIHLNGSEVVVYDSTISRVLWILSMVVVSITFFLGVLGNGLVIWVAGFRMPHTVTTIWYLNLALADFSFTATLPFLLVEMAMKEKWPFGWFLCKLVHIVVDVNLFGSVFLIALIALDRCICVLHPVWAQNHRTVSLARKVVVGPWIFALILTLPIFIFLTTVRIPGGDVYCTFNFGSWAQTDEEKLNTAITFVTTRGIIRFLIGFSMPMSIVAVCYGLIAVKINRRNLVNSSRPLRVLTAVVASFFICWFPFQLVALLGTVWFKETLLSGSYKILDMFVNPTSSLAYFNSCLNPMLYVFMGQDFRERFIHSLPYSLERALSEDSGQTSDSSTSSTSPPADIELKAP
Test: Agonist activity at mouse FPR2 expressed in HEK 293 cells co-expressing Galpha15 measured every 1.5 sec for 80 sec by Fluo-4 NW staining based scanning fluorometric method
Assay type: cell-based, HEK293
Please respond with reported log10(EC50) for every item in the list.
All values: log10 EC50 [nM].

Asked: I am curious: what log10(EC50) value has been reported for COc1cc(F)c([C@@H]2CNC(=O)[C@H]2NC(=O)Nc2ccc(F)c(F)c2)c(F)c1 ?
Given back: 0.93

Asked: I am curious: what log10(EC50) value has been reported for COc1cc(F)c([C@@H]2CNC(=O)[C@H]2NC(=O)Nc2ccc(Cl)s2)c(F)c1 ?
Given back: 0.15

Asked: I am curious: what log10(EC50) value has been reported for COc1cc(F)c([C@@H]2CNC(=O)[C@H]2NC(=O)Nc2ccc(C)c(O)c2)c(F)c1 ?
Given back: -0.20

Asked: I am curious: what log10(EC50) value has been reported for COc1cc(F)c([C@@H]2CNC(=O)[C@H]2NC(=O)Nc2ccc(F)cc2)c(F)c1 ?
Given back: 0.18

Asked: I am curious: what log10(EC50) value has been reported for COc1cc(F)c([C@@H]2CNC(=O)[C@H]2NC(=O)Nc2ccccc2)c(F)c1 [BMS-986235] ?
Given back: 0.53

---

Test: Cmax in cynomolgus monkey at 3 mg/kg, po by LC-MS/MS analysis
Type: ADME, organism-based, Macaca fascicularis
Design: route oral, dose 3 mg/kg
Details: in vivo
OBSERVATION TYPE: Cmax
I'd appreciate it if you included the unit after the number.

Asked: I am curious: what Cmax value has been reported for COc1cc(F)c([C@@H]2CNC(=O)[C@H]2NC(=O)Nc2ccccc2)c(F)c1 ?
Given back: 800 nM

---

Assay: Oral bioavailability in BALB/cCrSlc mouse at 1 mg/kg by LC-MS/MS analysis
Assay type: ADME, organism-based
Settings: in vivo
OBSERVATION TYPE: bioavailability (%)
Response body: numeric value in %, unit text excluded.

Asked: I am curious: what bioavailability value has been reported for COc1cc(F)c([C@@H]2CNC(=O)[C@H]2NC(=O)Nc2ccccc2)c(F)c1 ?
Given back: 24

---

Please respond with reported log10 of EC50 for every item in the list.
Target: N-formyl peptide receptor 2 (Homo sapiens, UniProt P25090)
Sequence (P25090 whole entry): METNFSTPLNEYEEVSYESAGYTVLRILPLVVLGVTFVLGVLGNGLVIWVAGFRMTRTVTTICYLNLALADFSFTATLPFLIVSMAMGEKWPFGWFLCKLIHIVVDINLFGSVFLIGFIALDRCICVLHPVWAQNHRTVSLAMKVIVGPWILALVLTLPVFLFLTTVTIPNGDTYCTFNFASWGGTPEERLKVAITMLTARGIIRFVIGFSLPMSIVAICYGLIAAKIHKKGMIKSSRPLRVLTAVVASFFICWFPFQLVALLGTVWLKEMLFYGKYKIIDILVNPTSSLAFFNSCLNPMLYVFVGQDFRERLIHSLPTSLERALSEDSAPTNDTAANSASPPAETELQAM
Assay: Agonist activity at human FPR2 expressed in HEK 293 cells co-expressing Galpha15 measured every 1.5 sec for 80 sec by Fluo-4 NW staining based scanning fluorometric method
Type: cell-based, HEK293
All values: log10 EC50 [pM].

Asked: I am curious: what log10 of EC50 value has been reported for O=C(Nc1ccc(F)cc1)N[C@@H]1C(=O)NC[C@H]1c1ccc(Cl)cc1F ?
Given back: 3.49

Asked: I am curious: what log10 of EC50 value has been reported for COc1cc(F)c([C@@H]2CNC(=O)[C@H]2NC(=O)Nc2ccccc2)c(F)c1 ?
Given back: 2.61

Asked: I am curious: what log10 of EC50 value has been reported for COc1cc(F)c([C@@H]2CNC(=O)[C@H]2NC(=O)Nc2ccc(Cl)c(O)c2)c(F)c1 ?
Given back: 1.70

Asked: I am curious: what log10 of EC50 value has been reported for N#Cc1cc(F)c([C@@H]2CNC(=O)[C@H]2NC(=O)Nc2ccc(F)cc2)c(F)c1 ?
Given back: 3.99

Asked: I am curious: what log10 of EC50 value has been reported for COc1ccc([C@@H]2CNC(=O)[C@@H]2NC(=O)Nc2ccc(Cl)cc2)cc1 (racemic) ?
Given back: 2.96

---

Molecular target: N-formyl peptide receptor 2 (Homo sapiens, UniProt P25090)
Test: Agonist activity at human FPR2 expressed in HEK 293 cells co-expressing Galpha15 measured every 1.5 sec for 80 sec by Fluo-4 NW staining based scanning fluorometric method
Type: cell-based, HEK293
pEC50: −log10 of the molar value.
Returns one of Met or Not met; Met when pEC50 is >= 8.

Asked: Is pEC50 at least 8? Consider COc1ccc(CC(C)NC(=O)Nc2ccc(Cl)cc2)cc1 (racemic)
Given back: Not met

Asked: Is pEC50 at least 8? Consider COc1ccc([C@H]2CNC(=O)[C@@H]2NC(=O)Nc2ccc(Cl)cc2)cc1
Given back: Not met

Asked: Is pEC50 at least 8? Consider COc1ccc(CC(NC(=O)Nc2ccc(Cl)cc2)C(=O)O)cc1 (racemic)
Given back: Not met

Asked: Is pEC50 at least 8? Consider CNc1cc(F)c([C@@H]2CNC(=O)[C@H]2NC(=O)Nc2ccc(F)cc2)c(F)c1
Given back: Met

Asked: Is pEC50 at least 8? Consider CCc1cc(F)c([C@@H]2CNC(=O)[C@H]2NC(=O)Nc2ccc(F)cc2)c(F)c1
Given back: Met

Asked: Is pEC50 at least 8? Consider COc1ccc([C@@H]2NC(=O)[C@H]2NC(=O)Nc2ccc(Cl)cc2)cc1 (racemic)
Given back: Not met

Asked: Is pEC50 at least 8? Consider COc1cc(F)c([C@@H]2CNC(=O)[C@H]2NC(=O)Nc2ccccc2F)c(F)c1
Given back: Not met

Asked: Is pEC50 at least 8? Consider COc1cc(F)c([C@@H]2CNC(=O)[C@H]2NC(=O)Nc2ccc(Cl)cn2)c(F)c1
Given back: Met

Asked: Is pEC50 at least 8? Consider COc1ccc(CCNC(=O)Nc2ccc(Cl)cc2)cc1
Given back: Not met
